The reported numbers originate from paper PMC6534634.

Molecular target: XylABc (XylA, xylose isomerase from Burkholderia cenocepacia) (Burkholderia cenocepacia)
Construct: full-length, synthetic gene in pTrcHis-B, His6 fusion (tag apparently kept), E. coli TOP10, Ni resin + Superdex 200; homotetramer ca. 208 kDa
Sequence (B4ENA5 whole entry, the tested form may be a part): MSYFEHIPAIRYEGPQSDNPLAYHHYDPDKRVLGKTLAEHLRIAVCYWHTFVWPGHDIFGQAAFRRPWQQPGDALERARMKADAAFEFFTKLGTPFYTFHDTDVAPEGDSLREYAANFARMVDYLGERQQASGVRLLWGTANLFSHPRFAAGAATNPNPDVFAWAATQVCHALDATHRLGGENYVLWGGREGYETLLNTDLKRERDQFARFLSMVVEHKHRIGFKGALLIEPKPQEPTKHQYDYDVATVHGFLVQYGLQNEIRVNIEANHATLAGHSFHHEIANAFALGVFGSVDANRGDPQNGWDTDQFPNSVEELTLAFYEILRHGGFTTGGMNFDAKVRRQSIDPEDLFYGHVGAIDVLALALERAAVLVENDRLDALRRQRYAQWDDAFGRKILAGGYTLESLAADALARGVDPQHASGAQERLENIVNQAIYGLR
Experiment: sorbitol dehydrogenase-coupled NADH oxidation, […] nm
Observable: IC50 (mM)
// units = mM; emit number, no label

# input Which measured IC50 value corresponds to OC[C@@H](O)[C@H](O)[C@@H](O)CO ?
# output 3.75
